Values from ChEMBL document CHEMBL1212776

system: Escherichia coli; assay: Antimicrobial activity against Escherichia coli DH10B harbouring recombinant plasmid pSau1 expressing beta-lactamase BIC-1 from Pseudomonas fluorescens PF-1 by Etest; type: functional
Field: log10 of MIC. Provide a value for each of the compounds that follow.
Recall that a logarithmic scale is used here: each number is log10 of MIC in µg/mL.

Specify reported log10 of MIC for the compound shown: `C[C@H]1[C@H](NC(=O)/C(=N\OC(C)(C)C(=O)O)c2csc(N)n2)C(=O)N1S(=O)(=O)O`
1.20

Report measured log10 of MIC; entry is `CO/N=C(\C(=O)N[C@@H]1C(=O)N2C(C(=O)O)=C(COC(C)=O)CS[C@H]12)c1csc(N)n1`
-0.30

Input `C[C@@H](O)[C@H]1C(=O)N2C(C(=O)O)=C(S[C@@H]3CN[C@H](C(=O)N(C)C)C3)[C@H](C)[C@H]12` , output reported log10 of MIC.
-0.60

Read the entry `CC(=O)OCC1=C(C(=O)O)N2C(=O)[C@@H](NC(=O)Cc3cccs3)[C@H]2SC1` and write its reported log10 of MIC.
2.11

Assign log10 of MIC to the following record: `CO[C@@]1(NC(=O)Cc2cccs2)C(=O)N2C(C(=O)O)=C(COC(N)=O)CS[C@@H]21`
0.60

Identify measured log10 of MIC associated with CO[C@@]1(NC(=O)C(C(=O)O)c2ccc(O)cc2)C(=O)N2C(C(=O)O)=C(CSc3nnnn3C)CO[C@@H]21 (stereo partly specified)
-0.92

* * *

biological target: Carbapenem-hydrolyzing beta-lactamase KPC (Klebsiella pneumoniae, UniProt Q9F663); test: Inhibition of carbapenem-resistant Klebsiella pneumoniae carbepenem-hydrolyzing beta-lactamase KPC-1
Sequence (Q9F663 whole entry): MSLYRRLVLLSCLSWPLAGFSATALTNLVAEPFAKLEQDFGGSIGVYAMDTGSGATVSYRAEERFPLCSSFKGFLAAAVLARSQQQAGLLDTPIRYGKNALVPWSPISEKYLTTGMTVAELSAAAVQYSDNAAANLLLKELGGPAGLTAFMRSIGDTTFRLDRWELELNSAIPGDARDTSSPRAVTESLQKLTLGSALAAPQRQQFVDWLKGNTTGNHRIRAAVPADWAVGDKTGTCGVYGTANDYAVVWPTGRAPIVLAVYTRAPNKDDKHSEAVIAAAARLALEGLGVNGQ
READOUT_KIND: IC50 (µM)
State the answer as a number, implicitly in µM.

Give IC50 for O=C(O)[C@H]1/C(=C/CO)O[C@@H]2CC(=O)N21 [CLAVULANIC ACID] tested on Carbapenem-hydrolyzing beta-lactamase KPC (Klebsiella pneumoniae, UniProt Q9F663).
10.5

* * *

tested on: Escherichia coli; experiment: Antimicrobial activity against Escherichia coli DH10B harbouring recombinant plasmid pSau1 expressing beta-lactamase BIC-1 from Pseudomonas fluorescens PF-1 by Etest; format: functional
READOUT_KIND: log10 of MIC (log10 of the value in µg/mL)
Scale: log10; quantity: MIC; unit before log: µg/mL

Give the reported value of log10 of MIC for this record: `CO/N=C(\C(=O)N[C@@H]1C(=O)N2C(C(=O)[O-])=C(C[N+]3(C)CCCC3)CS[C@H]12)c1csc(N)n1`
-0.92

Given CCN1CCN(C(=O)N[C@@H](C(=O)N[C@@H]2C(=O)N3[C@@H]2SC(C)(C)[C@@H]3C(=O)O)c2ccccc2)C(=O)C1=O [PIPERACILLIN] , respond with its log10 of MIC.
2.41

State its log10 of MIC for this molecule: CO/N=C(\C(=O)N[C@@H]1C(=O)N2C(C(=O)O)=C(COC(N)=O)CS[C@H]12)c1ccco1 [CEFUROXIME]
1.20

Answer with reported log10 of MIC of `C[C@@H](O)[C@H]1C(=O)N2C(C(=O)O)=C(S[C@@H]3CN[C@H](C(=O)Nc4cccc(C(=O)O)c4)C3)[C@H](C)[C@H]12`
-0.60

Report log10 of MIC for CC(C)(O/N=C(\C(=O)N[C@@H]1C(=O)N2C(C(=O)[O-])=C(C[n+]3ccccc3)CS[C@H]12)c1csc(N)n1)C(=O)O [CEFTAZIDIME]
-0.30
